The entries below are paired with their reported pIC50.
species: Rattus norvegicus; assay: Vasorelaxant potency was assessed by measurement of inhibition of methoxamine-contracted rat aorta; format: functional
pIC50: −log10 of the molar value.
measurement type: pIC50

>>> measured_value("CC1(C)Oc2ccc(C#N)cc2[C@@H](NC(=O)Nc2ccccc2)[C@H]1O")
5.21
>>> measured_value("CC1(C)Oc2ccc(C(F)(F)F)cc2[C@@H](/N=C(\\NC#N)Nc2ccccc2)[C@@H]1O (relative stereo)")
5.04
>>> measured_value("CC1(C)C[C@H](NC(=O)Nc2ccccc2)c2cc(C#N)ccc2O1")
5.74
>>> measured_value("CC1(C)Oc2ccc(C(F)(F)F)cc2[C@@H](NC(=O)Nc2ccccc2)[C@@H]1O")
5.96
>>> measured_value("CC1(C)C[C@H](NC(=O)Nc2ccccc2)c2cc(C#N)ccc21")
5.89
>>> measured_value("CC1(C)Oc2ccc(N)cc2[C@@H](/N=C(\\NC#N)Nc2ccccc2)[C@@H]1O (relative stereo)")
4.22
>>> measured_value("CC(=O)O[C@H]1[C@H](NC(=O)Nc2ccccc2)c2cc(C#N)ccc2OC1(C)C")
5.36
>>> measured_value("CC(=O)O[C@H]1[C@H](/N=C(\\NC#N)Nc2ccccc2)c2cc(C#N)ccc2OC1(C)C (relative stereo)")
5.59
>>> measured_value("CC(=O)c1ccc2c(c1)[C@@H](NC(=O)Nc1ccccc1)[C@H](O)C(C)(C)O2")
5.92
>>> measured_value("CC1(C)C[C@H](/N=C(\\NC#N)Nc2ccccc2)c2cc(C#N)ccc21")
5.59
>>> measured_value("CC1(C)c2ccc([N+](=O)[O-])cc2[C@@H](NC(=O)Nc2ccccc2)[C@@H]1O")
6.74
